# inhibition at 2000 µg/mL per entry
System: Candida tropicalis
Assay: Antifungal activity against Candida tropicalis NCIM 3556 assessed as fungal growth inhibition at 2 mg/ml by microdilution method
Format: functional
Provide only the numeric value, understood in %.

Below, each entry is followed by its recorded inhibition at 2000 µg/mL result.
q: Which inhibition at 2000 µg/mL value is on record for CSc1ccc(C2CC(c3ccc(Cl)cc3)=NN2c2ccccc2)cc1 (stereo unspecified) ?
a: 94.4

q: Try this compound next: CSc1ccc(C2CC(c3ccccc3)=NN2c2ccccc2)cc1 (stereo unspecified)
a: 73.1

q: Try this compound next: COc1ccc(C2=NN(c3ccccc3)C(c3ccc(SC)cc3)C2)cc1OC (stereo unspecified)
a: 9.12

q: Try this compound next: CS(=O)(=O)c1ccc(C2CC(c3ccccc3)=NN2c2ccccc2)cc1 (stereo unspecified)
a: 30.6

q: Now consider CSc1ccc(C2CC(c3ccc(C)cc3)=NN2c2ccccc2)cc1 (stereo unspecified) .
a: 95.3

q: Same question for COc1cccc(C2=NN(c3ccccc3)C(c3ccc(SC)cc3)C2)c1 (stereo unspecified) please.
a: 98.7

q: Also check CSc1ccc(C2CC(c3ccc(F)cc3)=NN2c2ccccc2)cc1 (stereo unspecified)
a: 97.4

q: Moving on to the next compound: CSc1ccc(C2CC(c3cccc(Br)c3)=NN2c2ccccc2)cc1 (stereo unspecified)
a: 65.1

Moving on to another compound below.
q: Any idea what inhibition at 2000 µg/mL was measured for CS(=O)(=O)c1ccc(C2CC(c3ccc(Cl)cc3)=NN2c2ccccc2)cc1 (stereo unspecified) ?
a: 95.6

====

Entries annotated with measured Activity
System: Mycobacterium tuberculosis
Experiment: Antimycobacterial activity against Mycobacterium tuberculosis H37Rv assessed as reduction in relative light units at 100 ug/ml after 72 hrs by luciferase reporter phage assay
Assay type: functional
Parameters: scale not given: the % may be the effect or the level left
Use % as the unit, but write only the number.

Example cases with answers are listed next.
q: # input molecule: CSc1ccc(C2CC(c3ccc(F)cc3)=NN2c2ccccc2)cc1 (stereo not given) ; wanted: its Activity
a: 4.75

q: How about CCOc1ccc(C2=NN(c3ccccc3)C(c3ccc(SC)cc3)C2)cc1 (stereo not given) ?
a: 48.35

q: Next entry: COc1ccc(C2=NN(c3ccccc3)C(c3ccc(SC)cc3)C2)cc1 (stereo not given)
a: 24.87

q: Same for CSc1ccc(C2CC(c3ccc(Br)cc3)=NN2c2ccccc2)cc1 (stereo not given)
a: 18.55

---
q: What value of Activity has been recorded for this entry: CSc1ccc(C2CC(c3ccc(Cl)cc3)=NN2c2ccccc2)cc1 (stereo not given)
a: 17.43

====

Reported inhibition at 2000 µg/mL values for the following compounds.
System: Candida tropicalis
Test: Antifungal activity against Candida tropicalis NCIM 3556 assessed as fungal growth inhibition at 2 mg/ml by microdilution method
Type: functional
Write it as a number; the unit % goes unstated.

q: Item under review: CSc1ccc(C2CC(c3cccc(N)c3)=NN2c2ccccc2)cc1 (configuration not stated) . Reported inhibition at 2000 µg/mL?
a: 86.1

q: What about this compound? CSc1ccc(C2CC(c3cccc([N+](=O)[O-])c3)=NN2c2ccccc2)cc1 (configuration not stated)
a: 45.9

q: Also CSc1ccc(C2CC(c3ccc(Br)cc3)=NN2c2ccccc2)cc1 (configuration not stated) , if possible.
a: 88.1

q: Can you handle COc1ccc(C2=NN(c3ccccc3)C(c3ccc(SC)cc3)C2)cc1 (configuration not stated) next?
a: 92.9

q: Okay, and CCOc1ccc(C2=NN(c3ccccc3)C(c3ccc(SC)cc3)C2)cc1 (configuration not stated) ?
a: 95.4

---
q: Reported inhibition at 2000 µg/mL, compound CSc1ccc(C2CC(c3ccccc3Cl)=NN2c2ccccc2)cc1 (configuration not stated) : ____
a: 91

q: Also, CSc1ccc(C2CC(c3cccc4c3OCO4)=NN2c2ccccc2)cc1 (configuration not stated) please.
a: 17.1
